biological target: COX-1 (Homo sapiens, UniProt P23219); construct: host or cells: U-937 human lymphoma cells; test: Assay for the COX-1 inhibitory activity using U-937 (PGE2 inhibition); type: cell-based; details: 1 μM test compound; U-937 human lymphoma cells; PGE2 after arachidonic acid; read-out: Cyclooxygenase (COX) Inhibition (%) COX-1 (1 μM)
Sequence (P23219 24-599): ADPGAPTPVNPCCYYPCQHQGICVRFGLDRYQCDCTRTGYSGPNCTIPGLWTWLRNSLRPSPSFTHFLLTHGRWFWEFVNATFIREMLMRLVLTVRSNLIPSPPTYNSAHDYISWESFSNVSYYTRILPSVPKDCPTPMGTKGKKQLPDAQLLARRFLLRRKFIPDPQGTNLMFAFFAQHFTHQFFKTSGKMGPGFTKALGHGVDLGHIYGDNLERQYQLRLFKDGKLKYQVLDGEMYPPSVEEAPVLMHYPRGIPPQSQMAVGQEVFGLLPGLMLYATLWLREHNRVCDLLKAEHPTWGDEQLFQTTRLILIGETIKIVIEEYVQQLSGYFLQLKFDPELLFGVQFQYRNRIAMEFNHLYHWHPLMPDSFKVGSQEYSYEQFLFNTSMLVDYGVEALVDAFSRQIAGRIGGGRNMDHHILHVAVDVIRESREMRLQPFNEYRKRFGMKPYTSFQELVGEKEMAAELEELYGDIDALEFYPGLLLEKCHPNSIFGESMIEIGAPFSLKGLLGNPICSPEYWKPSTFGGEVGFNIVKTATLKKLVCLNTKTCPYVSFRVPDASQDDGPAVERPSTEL
Value type: inhibition at 1 µM (%)

{"Compound": "CCOc1nc(-c2ccc(OC)cc2)n(-c2ccc(S(N)(=O)=O)cc2)n1 [Example 30]", "inhibition at 1 µM [%]": 16.4}
{"Compound": "COc1ccc(-c2nc(OC)nn2-c2ccc(S(N)(=O)=O)cc2)cc1 [Example 24]", "inhibition at 1 µM [%]": 16.4}
{"Compound": "C#CCSc1nc(-c2ccccc2)n(-c2ccc(S(N)(=O)=O)cc2)n1 [Example 45]", "inhibition at 1 µM [%]": 23.4}
{"Compound": "CCOc1nc(-c2ccccc2)n(-c2ccc(S(C)(=O)=O)cc2)n1 [Example 62]", "inhibition at 1 µM [%]": 26}
{"Compound": "CSc1nc(-c2ccccc2)n(-c2ccc(S(N)(=O)=O)cc2)n1 [Example 29]", "inhibition at 1 µM [%]": 17.7}
{"Compound": "COc1nc(-c2ccccc2)n(-c2ccc(S(C)(=O)=O)cc2)n1 [Example 60]", "inhibition at 1 µM [%]": 23.4}

(I) C=CCOc1nc(-c2ccc(OC)cc2)n(-c2ccc(S(N)(=O)=O)cc2)n1 [Example 52]
(II) NS(=O)(=O)c1ccc(-n2nc(OC3CCCC3)nc2-c2ccc(F)cc2)cc1 [Example 38]
[Q] Hi, I'm comparing I with II and wondering which one has the bigger number for inhibition at 1 µM. Any idea? Give the label under which the chosen entry appears.
[A] I

----------
Molecular target: COX-2 (Mus musculus, UniProt Q05769)
Construct: host or cells: RAW 264.7 cells, aspirin-pretreated, then induced with interferon gamma and LPS
Sequence (Q05769 18-604): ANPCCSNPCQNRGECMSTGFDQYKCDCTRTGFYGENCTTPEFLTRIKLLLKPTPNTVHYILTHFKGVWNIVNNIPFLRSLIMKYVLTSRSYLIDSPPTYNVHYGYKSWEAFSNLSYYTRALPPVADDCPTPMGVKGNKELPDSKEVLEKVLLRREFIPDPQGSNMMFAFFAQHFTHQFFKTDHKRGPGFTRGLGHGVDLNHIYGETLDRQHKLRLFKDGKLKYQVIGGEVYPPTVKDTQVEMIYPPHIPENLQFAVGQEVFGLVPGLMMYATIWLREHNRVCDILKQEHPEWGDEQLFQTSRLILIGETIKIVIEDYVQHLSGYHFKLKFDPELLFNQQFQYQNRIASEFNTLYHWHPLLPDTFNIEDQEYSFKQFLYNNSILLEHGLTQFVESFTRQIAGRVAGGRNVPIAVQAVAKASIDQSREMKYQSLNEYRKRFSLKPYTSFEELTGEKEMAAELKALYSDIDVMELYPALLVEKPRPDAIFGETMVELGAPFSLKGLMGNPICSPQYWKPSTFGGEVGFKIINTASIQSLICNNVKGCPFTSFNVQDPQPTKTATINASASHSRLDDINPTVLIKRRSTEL
Assay: Assay for the COX-2 inhibitory activity using RAW 264.7 cell line (PGE2 inhibition)
Type: cell-based
Settings: RAW264.7, 10 nM test compound, RAW 264.7 cells, interferon γ and LPS, 18 hours, read-out: Cyclooxygenase (COX) Inhibition (%) COX-2 (10 nM)
Value type: inhibition at 0.01 µM (%)

Below: 2 compounds and their reported inhibition at 0.01 µM.
{"Smiles code": "NS(=O)(=O)c1ccc(-n2nc(OC3CCCC3)nc2-c2ccc(F)cc2)cc1", "Value type": "inhibition at 0.01 µM", "Recorded result": 33.1}
{"Smiles code": "COc1ccc(-c2nc(OC(C)C)nn2-c2ccc(S(C)(=O)=O)cc2)cc1", "Value type": "inhibition at 0.01 µM", "Recorded result": 26.4}

(a) COc1ccc(-c2nc(OCc3ccccc3)nn2-c2ccc(S(N)(=O)=O)cc2)cc1F
(b) NS(=O)(=O)c1ccc(-n2nc(OCc3ccccc3)nc2-c2ccccc2)cc1
(c) CS(=O)(=O)c1ccc(-n2nc(O)nc2-c2ccccc2)cc1
[Q] Hey, quick one: sort these by inhibition at 0.01 µM, largest value first please. Please, when replying, give the labels in the order that was requested.
[A] c, b, a

----------
biological target: COX-2 (Mus musculus); construct: host or cells: RAW 264.7 cells, aspirin-pretreated, then induced with interferon gamma and LPS; test: Assay for the COX-2 inhibitory activity using RAW 264.7 cell line (PGE2 inhibition); format: cell-based; conditions: RAW264.7, 10 nM test compound, RAW 264.7 cells, interferon γ and LPS, 18 hours, read-out: Cyclooxygenase (COX) Inhibition (%) COX-2 (10 nM)
Value type: inhibition at 0.01 µM (%)

(a) CCCOc1nc(-c2ccc(F)cc2)n(-c2ccc(S(N)(=O)=O)cc2)n1 [Example 36]
(b) CCOc1nc(-c2ccc(F)cc2)n(-c2ccc(S(N)(=O)=O)cc2)n1 [Example 32]
[Q] Hi, I'm comparing a with b and wondering which one has the bigger number for inhibition at 0.01 µM. Any idea? Give the label under which the chosen entry appears.
[A] a
(a: 17.2%, b: 11.5%)

----------
biological target: COX-1 (Homo sapiens); construct: host or cells: U-937 human lymphoma cells; test: Assay for the COX-1 inhibitory activity using U-937 (PGE2 inhibition); type: cell-based; conditions: 1 μM test compound; U-937 human lymphoma cells; PGE2 after arachidonic acid; read-out: Cyclooxygenase (COX) Inhibition (%) COX-1 (1 μM)
Value type: inhibition at 1 µM (%)

Below: 2 molecules and their reported inhibition at 1 µM.
{"Molecule": "CC(C)Oc1nc(-c2ccccc2)n(-c2ccc(S(N)(=O)=O)cc2)n1 [Example 47]", "inhibition at 1 µM (%)": 25.4}
{"Molecule": "CCCOc1nc(-c2ccc(F)cc2)n(-c2ccc(S(N)(=O)=O)cc2)n1 [Example 36]", "inhibition at 1 µM (%)": 27}

(A) COc1nc(-c2ccccc2)n(-c2ccc(S(N)(=O)=O)cc2)n1 [Example 25]
(B) CCOc1ccc(-c2nc(O)nn2-c2ccc(S(N)(=O)=O)cc2)cc1 [Example 17]
[Q] Looking at A and B , which one comes out lower in inhibition at 1 µM terms? Give the label under which the chosen entry appears.
[A] A

----------
target: COX-1 (Homo sapiens); construct: host or cells: U-937 human lymphoma cells; test: Assay for the COX-1 inhibitory activity using U-937 (PGE2 inhibition); format: cell-based; conditions: 1 μM test compound; U-937 human lymphoma cells; PGE2 after arachidonic acid; read-out: Cyclooxygenase (COX) Inhibition (%) COX-1 (1 μM)
Value type: inhibition at 1 µM (%)

{"Smiles code": "COc1nc(-c2ccc(Br)cc2)n(-c2ccc(S(N)(=O)=O)cc2)n1", "inhibition at 1 µM, %": 11.2}
{"Smiles code": "COc1ccc(-c2nc(OC(C)C)nn2-c2ccc(S(C)(=O)=O)cc2)cc1", "inhibition at 1 µM, %": 22.6}
{"Smiles code": "COc1ccc(-c2nc(OCC(F)(F)F)nn2-c2ccc(S(N)(=O)=O)cc2)cc1", "inhibition at 1 µM, %": 33.1}
{"Smiles code": "COc1ccc(-c2nc(OC(C)C)nn2-c2ccc(S(N)(=O)=O)cc2)cc1", "inhibition at 1 µM, %": 34.2}
{"Smiles code": "NS(=O)(=O)c1ccc(-n2nc(OC3CC3)nc2-c2ccccc2)cc1", "inhibition at 1 µM, %": 34.3}
{"Smiles code": "COc1ccc(-c2nc(O)nn2-c2ccc(S(N)(=O)=O)cc2)cc1F", "inhibition at 1 µM, %": 26.4}

(I) CC(C)Sc1nc(-c2ccccc2)n(-c2ccc(S(N)(=O)=O)cc2)n1
(II) C=CCOc1nc(-c2ccccc2)n(-c2ccc(S(N)(=O)=O)cc2)n1
[Q] Hi, I'm comparing I with II and wondering which one has the bigger number for inhibition at 1 µM. Any idea? Give the label under which the chosen entry appears.
[A] I
(I: 33.1%, II: 20.4%)

----------
biological target: COX-1 (Homo sapiens, UniProt P23219); construct: host or cells: U-937 human lymphoma cells; assay: Assay for the COX-1 inhibitory activity using U-937 (PGE2 inhibition); format: cell-based; conditions: 1 μM test compound; U-937 human lymphoma cells; PGE2 after arachidonic acid; read-out: Cyclooxygenase (COX) Inhibition (%) COX-1 (1 μM)
Value type: inhibition at 1 µM (%)

Below: 3 molecules and their reported inhibition at 1 µM.
{"Smiles code": "COc1ccc(-c2nc(OC3CCCC3)nn2-c2ccc(S(N)(=O)=O)cc2)cc1", "Value type": "inhibition at 1 µM", "U": "%", "Recorded result": 12}
{"Smiles code": "NS(=O)(=O)c1ccc(-n2nc(O)nc2-c2ccc(Br)cc2)cc1", "Value type": "inhibition at 1 µM", "U": "%", "Recorded result": 37.4}
{"Smiles code": "COc1nc(-c2ccc(OC)c(F)c2)n(-c2ccc(S(N)(=O)=O)cc2)n1", "Value type": "inhibition at 1 µM", "U": "%", "Recorded result": 21.2}

(1) CS(=O)(=O)c1ccc(-n2nc(O)nc2-c2ccccc2)cc1
(2) COc1ccc(-c2nc(O)nn2-c2ccc(S(N)(=O)=O)cc2)cc1
[Q] Hi, I'm comparing 1 with 2 and wondering which one has the bigger number for inhibition at 1 µM. Any idea? Give the label under which the chosen entry appears.
[A] 2
